Target: Human opiate κ receptors (Homo sapiens, UniProt P41145)
Sequence (P41145 whole entry): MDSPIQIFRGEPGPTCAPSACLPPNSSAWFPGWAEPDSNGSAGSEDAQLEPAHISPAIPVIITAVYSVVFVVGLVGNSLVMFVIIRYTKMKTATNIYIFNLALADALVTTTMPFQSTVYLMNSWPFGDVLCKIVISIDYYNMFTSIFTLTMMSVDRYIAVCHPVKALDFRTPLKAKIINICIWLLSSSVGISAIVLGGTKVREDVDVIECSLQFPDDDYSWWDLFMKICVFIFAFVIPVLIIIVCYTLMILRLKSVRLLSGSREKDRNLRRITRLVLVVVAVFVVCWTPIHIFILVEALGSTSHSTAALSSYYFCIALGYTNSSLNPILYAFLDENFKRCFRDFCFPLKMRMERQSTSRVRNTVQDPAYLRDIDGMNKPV
Experiment: κ opioid receptor functional assay, [35S]GTPγS binding (assay C)
Type: biochemical

- COMPOUND: "COC(=O)CC(=O)N1CCN(C(=O)Cc2ccc(Cl)c(Cl)c2)C2C(N3CCCC3)CCCC21 (racemic) [Example 36]"
  activation (% of control) at 1 μM: "93 % of control"
- COMPOUND: "O=C(O)CC(=O)N1CCN(C(=O)Cc2ccc(Cl)c(Cl)c2)C2C(N3CCC(O)C3)CCCC21 (mixture of isomers) [T, reference compound]"
  activation (% of control) at 1 μM: "11 % of control"
- COMPOUND: "O=C(Cc1ccc(Cl)c(Cl)c1)N1CCN(Cc2cnc[nH]2)C2CCCC(N3CCCC3)C21 (racemic) [Example 49]"
  activation (% of control) at 1 μM: "112 % of control"
- COMPOUND: "COC(=O)N1CCN(C(=O)Cc2ccc(Cl)c(Cl)c2)[C@H]2[C@H](N3CCCC3)CCC[C@@H]21 (racemic) [Reference compound B, reference compound]"
  activation (% of control) at 1 μM: "90 % of control"
- COMPOUND: "O=C(c1ccccc1)N1CCN(C(=O)Cc2ccc(Cl)c(Cl)c2)C2C(N3CCCC3)CCCC21 (racemic) [Example 31]"
  activation (% of control) at 1 μM: "93 % of control"
- COMPOUND: "COc1ccc(CN2CCN(C(=O)Cc3ccc(Cl)c(Cl)c3)C3C(N4CCCC4)CCCC32)cc1 (stereo not shown) [X, reference compound]"
  activation (% of control) at 1 μM: "91 % of control"
- COMPOUND: "COC(=O)CC(=O)N1CCN(C(=O)Cc2ccc(Cl)c(Cl)c2)C2C(N3CCCC3)CCCC21 (stereo not shown) [P, reference compound]"
  activation (% of control) at 1 μM: "81 % of control"
